List of pIC50 values.
Molecular target: human cKit kinase (Homo sapiens (Human))
Sequence (P10721 26-976): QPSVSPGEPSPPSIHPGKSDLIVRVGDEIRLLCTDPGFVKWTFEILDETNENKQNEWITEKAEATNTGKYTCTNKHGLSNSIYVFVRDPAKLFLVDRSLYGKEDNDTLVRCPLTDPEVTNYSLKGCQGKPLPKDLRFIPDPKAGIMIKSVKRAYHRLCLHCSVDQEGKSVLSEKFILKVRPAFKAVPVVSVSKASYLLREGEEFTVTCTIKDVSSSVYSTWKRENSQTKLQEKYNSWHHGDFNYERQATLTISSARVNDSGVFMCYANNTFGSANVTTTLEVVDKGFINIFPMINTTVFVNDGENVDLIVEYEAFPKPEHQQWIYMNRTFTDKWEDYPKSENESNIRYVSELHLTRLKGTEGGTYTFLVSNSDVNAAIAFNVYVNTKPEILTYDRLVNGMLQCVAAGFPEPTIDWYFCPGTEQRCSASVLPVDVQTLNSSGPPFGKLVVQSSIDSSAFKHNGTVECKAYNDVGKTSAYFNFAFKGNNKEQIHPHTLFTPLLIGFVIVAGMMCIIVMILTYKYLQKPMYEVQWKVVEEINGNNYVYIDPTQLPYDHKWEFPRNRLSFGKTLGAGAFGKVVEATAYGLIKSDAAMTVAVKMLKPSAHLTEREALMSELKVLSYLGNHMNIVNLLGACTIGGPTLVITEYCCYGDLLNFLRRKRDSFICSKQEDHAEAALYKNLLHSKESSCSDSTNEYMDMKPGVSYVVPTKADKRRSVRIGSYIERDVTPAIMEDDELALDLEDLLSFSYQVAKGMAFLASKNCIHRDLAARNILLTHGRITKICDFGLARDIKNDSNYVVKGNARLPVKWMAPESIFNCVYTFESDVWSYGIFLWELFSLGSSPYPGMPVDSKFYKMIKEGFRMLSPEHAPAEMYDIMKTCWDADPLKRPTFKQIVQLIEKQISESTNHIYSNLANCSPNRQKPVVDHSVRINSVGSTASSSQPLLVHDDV
Assay: cKit enzyme assay (LANCE, Eurofins CEREP)
Conditions: human recombinant enzyme, 50 μM ATP; geometric mean of at least n=2, * = single experiment
pIC50: −log10 of the molar value.

{"Chem smiles": "COc1cc2nn([C@H]3CC[C@H](n4ccnn4)CC3)cc2cc1C(=O)Nc1cccn(C)c1=O", "pIC50": "< 4.00"}
{"Chem smiles": "COc1cc2nn([C@H]3CC[C@H](N(C)C(=O)[C@@H](C)O)CC3)cc2cc1C(=O)Nc1cccn(C2COC2)c1=O", "pIC50": "< 4.30"}
{"Chem smiles": "COc1cc2nn([C@H]3CC[C@H](n4cncn4)CC3)cc2cc1C(=O)Nc1cccn(C)c1=O", "pIC50": "< 4.00"}
